Where do the numbers come from? From PubChem BioAssay.

- Experimental details: inhibitors of TNFa-induced NFkB p65 translocation, primary screen, imaging, HUVEC, MLSMR starter and 10KST1 sets (AID 438);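 note: compound added about 3h40 before a 20 min TNFalpha stimulation; signal is the nuclear over cytoplasmic p65 intensity ratio per well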
- Experimental setup: HUVEC TNFa-induced p65 nuclear translocation; at 2 µM, stronger effect = higher value, 0% TNFa-plus-vehicle, 100% no-TNFa wells
The compounds listed here are annotated with their inhibition.
Output spec: scalar in %, unitless text.

Before answering, review these 2 worked examples.
>  <Compound>
CCOC(=O)c1c(-c2cccs2)csc1NC(=O)CCCC(=O)O

>  <Output unit>
%

>  <Reported measurement>
-0.4

$$$$
>  <Compound>
O=C(c1cccc2ccccc12)N1CCC(N2CCN(c3ccccc3)CC2)CC1

>  <Output unit>
%

>  <Reported measurement>
-1.4

$$$$

Turning now to a further record.
**Query** Entry under review: `Cc1ccc(N(CN2C(=O)NC(C)(C)C2=O)CN2C(=O)NC(C)(C)C2=O)cc1` . Reported inhibition?
**Result** 5.9
